Give measured pKd for each item. Keep answers brief.
Tested on: full length human vWF (SEQ ID NO 7)
Assay: dot blot KD determination and extent of binding, full length human vWF;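 note: dot blot binding of aptamers to full length human vWF across a protein titration, incubated 30 minutes at room temperature in 1x DPBS with BSA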
Details: rRdY minimers; 8 point titration 0-300 nM; read-out: Full length human vWF KD
Oligonucleotides are written 5' to 3', each unit as a sugar letter and its base; * is a phosphorothioate linkage, no mark a phosphodiester; rarer units and linkages stand in square brackets, end groups in braces. Plain capitals give the bases only. d = 2'-deoxy (DNA); r = 2'-OH (RNA)
Scale note: pKd = -log10(concentration in M).

Prompt: Short answer please: pKd, full length human vWF (SEQ ID NO 7), entry GGAGCCACACGACATTGGCGGGCGAGAGCCACGCATGGCTCC (rGrGrArGdCdCrAdCrAdCrGrAdCrAdTdTrGrGdCrGrGrGdCrGrArGrArGdCdCrAdCrGdCrAdTrGrGdCdTdCdC) [SEQ ID NO 192, minimized rRdY aptamer]
Response: 8.70

Prompt: Short answer please: pKd, full length human vWF (SEQ ID NO 7), entry GGCCACACGACATTGGCGGGCGAGAGCCACGCATGGCC (rGrGdCdCrAdCrAdCrGrAdCrAdTdTrGrGdCrGrGrGdCrGrArGrArGdCdCrAdCrGdCrAdTrGrGdCdC) [SEQ ID NO 198, minimized rRdY aptamer]
Response: 8.52

Prompt: Short answer please: pKd, full length human vWF (SEQ ID NO 7), entry GGAGCCACACGACATTGGCGGGTTGTAATTACCACGCATGGCTCC (rGrGrArGdCdCrAdCrAdCrGrAdCrAdTdTrGrGdCrGrGrGdTdTrGdTrArAdTdTrAdCdCrAdCrGdCrAdTrGrGdCdTdCdC) [SEQ ID NO 189, minimized rRdY aptamer]
Response: 9.00

Prompt: Short answer please: pKd, full length human vWF (SEQ ID NO 7), entry GGGACGGGGTGGGTAGACGGCGGGTATGTCCC (rGrGrGrAdCrGrGrGrGdTrGrGrGdTrArGrAdCrGrGdCrGrGrGdTrAdTrGdTdCdCdC) [SEQ ID NO 183, minimized rRdY aptamer]
Response: 8.00

Prompt: Short answer please: pKd, full length human vWF (SEQ ID NO 7), entry GGAGCCACGGGGTGGGTAGACGGCGGGTATGTGGCTCC (rGrGrArGdCdCrAdCrGrGrGrGdTrGrGrGdTrArGrAdCrGrGdCrGrGrGdTrAdTrGdTrGrGdCdTdCdC) [SEQ ID NO 180, minimized rRdY aptamer]
Response: 9.00

meta.source: patent US7998940B2
